B1: LOXL2 (parent)
chain: RLLRFSSQIHNNGQSDFRPKNGRH

variants of: B1; assay: protein stability index of a GFP-peptide fusion (GPS, HEK-293T) (PSI 1-6); higher = more stable; conditions: c terminus: a fixed tail appended;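 note: lentivirally expressed fusions sorted by FACS into six bins by GFP to DsRed ratio, PSI derived from sequencing read proportions per bin multiplied by bin number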
The entries below come with measured protein stability index values attached.

{"columns": ["variantString", "protein stability index"],
 "data": [
  ["Q14W", 2.06],
  ["K20S", 2.78],
  ["F17G", 3.04],
  ["G13K", 2.15],
  ["S15N", 2.36],
  ["D16C", 1.73],
  ["S7Q", 2.18],
  ["H24Q", 3.16],
  ["N12C", 2.36],
  ["Q14V", 2.15],
  ["L2V", 3.52],
  ["D16N", 2.27],
  ["P19W", 2.76],
  ["R23G", 2.71],
  ["P19D", 2.9],
  ["K20T", 3.01],
  ["I9M", 3.07],
  ["Q8V", 2.95],
  ["S15H", 3.05],
  ["S6I", 3.34],
  ["R1L", 1.72],
  ["H10F", 2.13],
  ["F5A", 3.46],
  ["H24W", 2.83],
  ["R1F", 1.17],
  ["N12W", 2.55],
  ["N21L", 2.17],
  ["I9D", 3.5],
  ["N11T", 2.7],
  ["R1T", 2.57],
  ["R4L", 2.36],
  ["S7R", 2.25],
  ["F17D", 3.75],
  ["F17P", 3.45],
  ["F17K", 3.34],
  ["N21R", 2.62],
  ["S7A", 2.5],
  ["R23Y", 2.61],
  ["L3G", 3.63],
  ["G22R", 2.47],
  ["S7V", 2.04],
  ["Q8K", 2.14],
  ["Q14T", 3.35],
  ["G13A", 2.48],
  ["R18G", 2.33],
  ["N12T", 2.72]
]}
